- Species on record: Mus musculus
- test-protocol: Adenylate cyclase activity in vitro in the membrane fraction from S-91 mouse melanoma tumors activity measured relative to alpha-MSH
- Format: functional, cell membranes
I'd appreciate it if you marked entries Condition met when Relative potency is lower than 0.2 and Condition not met when it is not.

Worked set:
| input-smiles | cat |
| --- | --- |
| CSCC[C@H](NC(C)=O)C(=O)N[C@@H](CCC(=O)O)C(=O)N[C@@H](Cc1c[nH]cn1)C(=O)N[C@@H](Cc1ccccc1)C(=O)N[C@@H](CCCN=C(N)N)C(=O)N[C@@H](Cc1c[nH]c2ccccc12)C(=O)NCC(N)=O | Condition met |
| CC(=O)N[C@H]1CSSC[C@@H](C(=O)N[C@@H](CCCCN)C(=O)N2CCC[C@@H]2C(=O)N[C@H](C(N)=O)C(C)C)NC(=O)[C@H](Cc2c[nH]c3ccccc23)NC(=O)[C@@H](CCCN=C(N)N)NC(=O)[C@H](Cc2ccccc2)NC(=O)[C@@H](Cc2c[nH]cn2)NC(=O)[C@H](CCC(=O)O)NC1=O | Condition not met |
| CC(=O)N[C@H]1CSSC[C@@H](C(N)=O)NC(=O)[C@H](Cc2c[nH]c3ccccc23)NC(=O)[C@@H](CCCN=C(N)N)NC(=O)[C@H](Cc2ccccc2)NC(=O)[C@@H](Cc2c[nH]cn2)NC(=O)[C@H](CCC(=O)O)NC1=O | Condition met |
| CC(=O)N[C@H]1CSSC[C@@H](C(=O)N[C@@H](CCCCN)C(N)=O)NC(=O)[C@H](Cc2c[nH]c3ccccc23)NC(=O)[C@@H](CCCN=C(N)N)NC(=O)[C@H](Cc2ccccc2)NC(=O)[C@@H](Cc2c[nH]cn2)NC(=O)[C@H](CCC(=O)O)NC1=O | Condition met |

Now look at this one.
Query :: Strictly below 0.2: is that where Relative potency of CC(=O)N[C@H]1CSSC[C@@H](C(=O)N[C@@H](CCCCN)C(=O)N2CCC[C@@H]2C(N)=O)NC(=O)[C@H](Cc2c[nH]c3ccccc23)NC(=O)[C@@H](CCCN=C(N)N)NC(=O)[C@H](Cc2ccccc2)NC(=O)[C@@H](Cc2c[nH]cn2)NC(=O)[C@H](CCC(=O)O)NC1=O sits?
Result :: Condition not met

* * *

- System: Anolis carolinensis
- test-protocol: Ability to stimulate melanosome dispersion in vitro in the lizard skin activity measured relative to alpha-MSH
- Type: functional
A collection of molecules and their measured Relative potency
# print the numeric value only

Example entries and their recorded answers appear below.
| input-smiles | Relative potency |
| --- | --- |
| CC(=O)N[C@H]1CSSC[C@@H](C(=O)N[C@@H](CCCCN)C(=O)N2CCC[C@H]2C(N)=O)NC(=O)[C@H](Cc2c[nH]c3ccccc23)NC(=O)[C@H](CCCN=C(N)N)NC(=O)[C@@H](Cc2ccccc2)NC(=O)[C@H](Cc2c[nH]cn2)NC(=O)[C@H](CCC(=O)O)NC1=O | 6 |
| CC(=O)N[C@H]1CSSC[C@@H](C(N)=O)NC(=O)[C@H](Cc2c[nH]c3ccccc23)NC(=O)[C@H](CCCN=C(N)N)NC(=O)[C@H](Cc2ccccc2)NC(=O)[C@H](Cc2c[nH]cn2)NC(=O)[C@H](CCC(=O)O)NC1=O | 0.003 |

Now let's try a different one.
Query :: Please list Relative potency recorded for the molecule CSCC[C@H](NC(C)=O)C(=O)N[C@@H](CCC(=O)O)C(=O)N[C@@H](Cc1c[nH]cn1)C(=O)N[C@@H](Cc1ccccc1)C(=O)N[C@@H](CCCN=C(N)N)C(=O)N[C@@H](Cc1c[nH]c2ccccc12)C(=O)NCC(N)=O
Result :: 0.03

* * *

- Test system: Anolis carolinensis
- test-protocol: Ability to stimulate melanosome dispersion in vitro in the lizard skin activity measured relative to alpha-MSH
- Type: functional
Bridge positions count the residues as written; N and C are the ends. Peptide text beside a SMILES is read from it.
reported-property: Relative potency

| molecule | reported-property | recorded-result |
| --- | --- | --- |
| CC(=O)N[C@H]1CSSC[C@@H](C(=O)N[C@@H](CCCCN)C(=O)N2CCC[C@H]2C(=O)N[C@H](C(N)=O)C(C)C)NC(=O)[C@H](Cc2c[nH]c3ccccc23)NC(=O)[C@H](CCCN=C(N)N)NC(=O)[C@H](Cc2ccccc2)NC(=O)[C@H](Cc2c[nH]cn2)NC(=O)[C@H](CCC(=O)O)NC1=O | Relative potency | 0.6 |

Query :: Please list Relative potency recorded for the molecule CC(=O)N[C@H]1CSSC[C@@H](C(=O)N[C@@H](CCCCN)C(N)=O)NC(=O)[C@H](Cc2c[nH]c3ccccc23)NC(=O)[C@H](CCCN=C(N)N)NC(=O)[C@H](Cc2ccccc2)NC(=O)[C@H](Cc2c[nH]cn2)NC(=O)[C@H](CCC(=O)O)NC1=O
Result :: 0.07

Query :: Please list Relative potency recorded for the molecule CC(=O)N[C@@H](CO)C(=O)N[C@@H](Cc1ccc(O)cc1)C(=O)N[C@@H](CO)C(=O)N[C@H]1CSSC[C@@H](C(=O)N[C@@H](CCCCN)C(=O)N2CCC[C@H]2C(=O)N[C@H](C(N)=O)C(C)C)NC(=O)[C@H](Cc2c[nH]c3ccccc23)NC(=O)[C@H](CCCN=C(N)N)NC(=O)[C@H](Cc2ccccc2)NC(=O)[C@H](Cc2c[nH]cn2)NC(=O)[C@H](CCC(=O)O)NC1=O (Ac-SYSCEHFRWCKPV-NH2; disulfide 4-10)
Result :: 2

Query :: Please list Relative potency recorded for the molecule CC(=O)N[C@H]1CSSC[C@@H](C(=O)N[C@@H](CCCCN)C(=O)N2CCC[C@H]2C(N)=O)NC(=O)[C@H](Cc2c[nH]c3ccccc23)NC(=O)[C@H](CCCN=C(N)N)NC(=O)[C@H](Cc2ccccc2)NC(=O)[C@H](Cc2c[nH]cn2)NC(=O)[C@H](CCC(=O)O)NC1=O
Result :: 1.5
